# run_description: Selectivity index, ratio of IC50 for african green monkey (Cercopithecus aethiops) Vero cells to IC50 for chloroquine-sensitive Plasmodium falciparum D6
# Type: toxicity, cell-based
# stated_conditions: read-out: Ratio IC50
experimental_endpoint: selectivity ratio

Task: Give the measured selectivity ratio for O=C(CCCCCCC(=O)NO)NO [SUBEROHYDROXAMIC ACID]
Result: > 21

---

Consider the following compounds; for each one, report its IC50.
# System: Plasmodium falciparum
# run_description: Antimalarial activity against chloroquine-resistant Plasmodium falciparum Dd2 infected in O+ human erythrocytes by [3H]hypoxanthine incorporation assay
# Assay type: functional, organism-based
Could you give me the number in nM? Just the number is fine.

Task: Give the measured IC50 for CC(C)(C)OC(=O)N[C@@H](CCCCCS)C(=O)NC1CCCC1
Result: 19900

Task: Give the measured IC50 for CN(C)c1ccc(C(=O)N[C@@H](CSCCCC(=O)NO)C(=O)NC2CCCc3ccccc32)cc1 (stereo not given in full)
Result: 305

Task: Give the measured IC50 for O=C(CCCCC[C@H](NC(=O)OCc1ccccc1)C(=O)Nc1ccc(-c2ccccc2)cc1)NO
Result: 105

Task: Give the measured IC50 for CN(C)c1ccc(C(=O)N[C@@H](CCCCCC(=O)NO)C(=O)Nc2cccc3cccnc23)cc1
Result: 71

Task: Give the measured IC50 for Nc1ccccc1NC(=O)c1ccc(CNC(=O)OCc2cccnc2)cc1
Result: 7800

---

Consider the following compounds; for each one, report its Ratio IC50.
# run_description: Selectivity index, ratio of IC50 for neonatal foreskin fibroblasts to IC50 for chloroquine-sensitive Plasmodium falciparum 3D7

Task: Give the measured Ratio IC50 for CC(/C=C/C(=O)NO)=C\[C@@H](C)C(=O)c1ccc(N(C)C)cc1 [TRICHOSTATIN]
Result: 18

Task: Give the measured Ratio IC50 for O=C(CCCCC[C@H](NC(=O)c1ccc(Br)cc1)C(=O)Nc1ccc(-c2ccccc2)cc1)NO
Result: 9

Task: Give the measured Ratio IC50 for O=C(/C=C/c1ccccc1)N[C@@H](CCCCCC(=O)NO)C(=O)NCc1ccccc1
Result: 118

Task: Give the measured Ratio IC50 for O=C(CCCCC[C@H](NC(=O)c1cc2ccccc2[nH]1)C(=O)Nc1cccc2cccnc12)NO
Result: 26

Task: Give the measured Ratio IC50 for O=C(CCCCC[C@H](NC(=O)c1ccc(Br)cc1)C(=O)NCc1ccccc1)NO
Result: 64

Task: Give the measured Ratio IC50 for O=C(/C=C/c1ccccc1)N[C@@H](CCCCCC(=O)NO)C(=O)Nc1cccc2cccnc12
Result: 83

Task: Give the measured Ratio IC50 for CN(C)c1ccc(C(=O)N[C@@H](CCCCCC(=O)NO)C(=O)Nc2cccc3cccnc23)cc1
Result: 30

Task: Give the measured Ratio IC50 for O=C(CCCCC[C@H](NC(=O)c1cc2ccccc2[nH]1)C(=O)NCc1ccccc1)NO
Result: 37

Task: Give the measured Ratio IC50 for CC(NC(=O)c1ccccc1/N=C/c1c(O)ccc2ccccc12)c1ccccc1 (stereo not given) [SIRTINOL]
Result: 1.9

Task: Give the measured Ratio IC50 for O=C(CCCCC[C@H](NC(=O)OCc1ccccc1)C(=O)Nc1ccc(-c2ccccc2)cc1)NO
Result: 76

---

# run_description: Toxicity in human WI38 cells
# Format: cell-based, WI-38
experimental_endpoint: IC50

Task: Give the measured IC50 for Nc1ccccc1NC(=O)c1ccc(CNC(=O)OCc2cccnc2)cc1
Result: > 20 µM

---

Consider the following molecules; for each one, report its IC50.
# Tested on: Plasmodium falciparum
# run_description: Antimalarial activity against chloroquine-resistant Plasmodium falciparum Dd2 infected in O+ human erythrocytes by [3H]hypoxanthine incorporation assay
# Assay type: functional, organism-based
Could you give me the number in nM? Just the number is fine.

Task: Give the measured IC50 for CC(/C=C/C(=O)NO)=C\[C@@H](C)C(=O)c1ccc(N(C)C)cc1
Result: 8

Task: Give the measured IC50 for O=C(CCCSC[C@H](NC(=O)c1ccc(Br)cc1)C(=O)NCc1ccccc1)NO
Result: 125

Task: Give the measured IC50 for O=C(/C=C/c1ccccc1)N[C@@H](CCCCCC(=O)NO)C(=O)Nc1cccc2cccnc12
Result: 39

---

# Test system: Plasmodium falciparum
# run_description: Antimalarial activity against chloroquine-resistant Plasmodium falciparum Dd2 infected in O+ human erythrocytes by [3H]hypoxanthine incorporation assay
# Assay type: functional, organism-based
Consider the following compounds; for each one, report its IC50.
Could you give me the number in nM? Just the number is fine.

Task: Give the measured IC50 for O=C(CCCCC[C@H](NC(=O)c1ccc(Br)cc1)C(=O)NCc1ccccc1)NO
Result: 334

Task: Give the measured IC50 for CN(C)c1ccc(NC(=O)[C@H](CSCCCC(=O)NO)NC(=O)c2ccc(N(C)C)cc2)cc1
Result: 48

Task: Give the measured IC50 for CC(NC(=O)c1ccccc1/N=C/c1c(O)ccc2ccccc12)c1ccccc1 (stereo not given)
Result: 9100

Task: Give the measured IC50 for CN(C)c1ccc(C(=O)N[C@@H](CSCCCC(=O)NO)C(=O)NCc2ccccc2)cc1
Result: 169

Task: Give the measured IC50 for O=C(CCCCC[C@H](NC(=O)c1ccc(Br)cc1)C(=O)Nc1ccc(-c2ccccc2)cc1)NO
Result: 41
